Values compiled from paper PMC6018666.

Biological target: UP1 (hnRNP A1 RRM1-RRM2) (UniProt P09651 1-196)
Sequence (P09651 1-196): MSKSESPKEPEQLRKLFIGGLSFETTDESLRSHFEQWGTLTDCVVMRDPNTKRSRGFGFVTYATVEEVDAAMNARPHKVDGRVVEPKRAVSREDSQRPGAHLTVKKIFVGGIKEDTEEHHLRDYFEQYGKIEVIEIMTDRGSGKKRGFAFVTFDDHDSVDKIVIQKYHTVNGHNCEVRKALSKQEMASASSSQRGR
Test: ITC; N=1.07; ITC: 20 mM Na phosphate pH 6.5, 100 mM NaCl, no DTT, 25 C; EMSA: 100 mM KCl, 20% glycerol, 0.2 mM EDTA, 100 mM Tris pH 8.0, 0.5 mM DTT, 0.5 mM ATP, 20 mM creatine phosphate, 3.2 mM MgCl2, 4 C; footprint: 12 mM Tris-HCl pH 7.5, 48 mM NaCl, 1.2 mM MgCl2, 37 C
Details: protein: recombinant; tags: His tag removed by TEV; hairpin
Measured Attribute: pKd
Interpret pKd as the negative base-10 log of the concentration measured in mol/L.

Query: Quote pKd reported for GGUGAAGUAGAUUCGCC (structured_RNA) [17-mer(A35C)] please.
Result: 5.51
